assayed_system: HvExoI W286F/W434A mutant (Hordeum vulgare, UniProt Q9XEI3, W311F/W459A)
Sequence (Q9XEI3 26-630 W311F/W459A): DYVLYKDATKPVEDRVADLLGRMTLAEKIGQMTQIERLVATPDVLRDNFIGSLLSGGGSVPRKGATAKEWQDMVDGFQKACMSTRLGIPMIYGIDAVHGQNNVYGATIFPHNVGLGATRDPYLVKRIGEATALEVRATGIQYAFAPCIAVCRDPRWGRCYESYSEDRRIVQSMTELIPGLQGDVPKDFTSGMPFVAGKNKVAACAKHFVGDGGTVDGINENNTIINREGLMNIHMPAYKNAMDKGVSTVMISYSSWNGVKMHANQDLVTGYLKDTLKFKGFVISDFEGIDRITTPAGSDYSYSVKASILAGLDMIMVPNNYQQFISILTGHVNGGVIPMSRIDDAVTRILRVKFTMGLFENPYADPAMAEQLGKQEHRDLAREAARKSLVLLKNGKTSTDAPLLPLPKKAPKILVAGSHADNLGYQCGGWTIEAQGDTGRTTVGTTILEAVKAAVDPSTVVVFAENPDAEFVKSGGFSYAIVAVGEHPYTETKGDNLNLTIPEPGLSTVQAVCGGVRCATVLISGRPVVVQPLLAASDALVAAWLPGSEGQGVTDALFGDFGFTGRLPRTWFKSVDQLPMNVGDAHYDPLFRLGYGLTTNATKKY
assay_text: Relative rates of hydrolysis of poly-, oligosaccharides and aryl-glycosides
Assay type: biochemical
condition_description: substance is the substrate, nd = activity not detected

compound	Activity (relative rate of hydrolysis) (μmole/min per mg protein)
OC[C@H]1O[C@@H](O[C@@H]2[C@@H](O)[C@H](O[C@@H]3[C@@H](O)[C@H](O[C@@H]4[C@@H](O)[C@H](O[C@@H]5[C@@H](O)[C@H](O[C@H]6[C@H](O)[C@@H](CO)OC(O)[C@@H]6O)O[C@H](CO)[C@H]5O)O[C@H](CO)[C@H]4O)O[C@H](CO)[C@H]3O)O[C@H](CO)[C@H]2O)[C@H](O)[C@@H](O)[C@@H]1O (stereo partly drawn) [Laminarihexaose]	0.1
OC[C@H]1O[C@@H](O[C@@H]2[C@@H](O)[C@H](O[C@@H]3[C@@H](O)[C@H](O[C@H]4[C@H](O)[C@@H](CO)OC(O)[C@@H]4O)O[C@H](CO)[C@H]3O)O[C@H](CO)[C@H]2O)[C@H](O)[C@@H](O)[C@@H]1O (stereo partly drawn) [Laminaritetraose]	0.2
OC[C@H]1O[C@@H](O[C@@H]2[C@@H](O)[C@H](O[C@@H]3[C@@H](O)[C@H](O[C@@H]4[C@@H](O)[C@H](O[C@@H]5[C@@H](O)[C@H](O)O[C@H](CO)[C@H]5O)O[C@H](CO)[C@H]4O)O[C@H](CO)[C@H]3O)O[C@H](CO)[C@H]2O)[C@H](O)[C@@H](O)[C@@H]1O [Laminaripentaose]	0.2
